Form field: recombinant UMI read abundance (log10) (one value per entry).
test: recombinant UMI read abundance after kanamycin selection (control-corrected) (log10(CPM+1)); higher = more efficient recombination; extreme values may be limits of the assay; sequences stand for … in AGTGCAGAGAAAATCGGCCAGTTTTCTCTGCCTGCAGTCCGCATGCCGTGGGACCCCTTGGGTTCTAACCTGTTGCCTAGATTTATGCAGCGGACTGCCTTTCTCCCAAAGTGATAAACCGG…AGGTTGGTTTCACT; site = the 11-nt donor;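 also: IS621 bridge recombinase in Escherichia coli cells against a fixed T5 target plasmid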
Just the number, please, no unit after it.

Ask: # get_value(readout='recombinant UMI read abundance (log10)', item= AGCTCAGCATGGACCGGTTTTCCCGGTAATCCGTATTTGGG (site AGCTCAACTCC) )
Result: 0

Ask: Requested read-out: recombinant UMI read abundance (log10). Entry: TGGCCGGCATGGACCGGTTTTCCCGGTAATCCGTATTTGGA (site TGGCCGGCTTC)
Result: 0.0151

Ask: I would be grateful if you could share the reported recombinant UMI read abundance (log10) for TCCTGAACATGGACCGGTTTTCCCGGTAATCCGTATTTGCT (site TCCTGAACTAG) .
Result: 0

Ask: Item CGCTAGCCATGGACCGGTTTTCCCGGTAATCCGTATTTGCC (site CGCTAGCCTGG) has what recorded recombinant UMI read abundance (log10)?
Result: 0.816

Ask: What recombinant UMI read abundance (log10) value was documented for this sequence, CGTAGAACATGGACCGGTTTTCCCGGTAATCCGTATTTGTT (site CGTCGAACTAA) ?
Result: 0.018
